Molecular target: human B7-H3 expressed on A375 tumor cells (human) (UniProt Q5ZPR3)
Assay: flow cytometry on A375 cells, MFI(PE); unit from the axis Conc (nM)
Can you tell me EC50 for the items I'm about to list?
API: value field is a number in nM; no unit string.

Req: What does the record list as EC50 for 97E6B2 (antibody, V domains shown) VH: QVQLQQPGAELVKPGASVKMSCKASGYTFTSYWITWVKQRPGQGLEWIGDIYPGSNNTYYNEKFKSKATLTVDTSSSTAYIQLSSLTSEDSAVYYCARLIMSLFDYSGQGTTLTVSS VL: ENVLTQSPANMSASPGEKVTMTCSVSSSVSYIHWYQQKSSTSPTLWIYDTSKLASGVPGRFSGSGSGNSYALTISSMEAEDVATYYCFQGSAYPLTFGAGTKLELK ?
Resp: 0.26

Req: If you can, please state the reported EC50 value of 216E7A9 (antibody, V domains shown) VH: DVQLVESGGGLVQPGGSRKLSCAASGFTFSSFGMHWVRQAPEKGLEWVAYISSGSSTIYYADTVRGRFTISRDNPKNTLFLQMTSLRSEDTAMYYCARGGDYYYALDYWGQGTSVTVSS VL: DIQMTQSPASLSVSVGETVTITCRASENIHSNLEWYQQKQGKSPQLLVYAATNLADGVPSRFSGSGSGTQYSLKINSLQSEDFGSYYCQHFWGTPFTFGSGTKLEIK .
Resp: 0.08

Req: # input binder: 62H9H5 (antibody, V domains shown) VH: QVQLQQSGAELAKPGASVKMSCKASGYTFTNYWIHWVKQRPGQGLEWIGYISPSTGYTEYNQKFKGKATLTAVKSSSTAFMQLSSLTSEDSAVYFCARGTGYWGQGTTLTVSS VL: DIQMTQSPASLSASVGESVTITCRASENIYSFFAWYQQKEGKSPQLLVYNAKTLEEGVPSRFSGSGSGTQFSLKINSLQPEDFGSYYCQHNYVSPFTFGSGTKLEIK ; wanted: its EC50
Resp: 0.042

Req: Entry under review: 72D1D11-z3p2 (antibody, V domains shown) VH: QVQLVQSGSELKKPGASVKVSCKASGYTFTNLGLNWVRQAPGQGLEWMGWINTAGGQPTYAEDFKGRFVFSLDTSVSTAYLQISSLKAEDTAVYYCARDDGYYYTMDYWGQGTTVTVSS VL: DIVMTQSPLSLPVTPGEPASISCRSSQSLVHSQGKTYLHWYLQKPGQSPQLLIYKVSNRFSGVPDRFSGSGSGTDFTLKISRVEAEDVGVYYCSQSTHVPWTFGGGTKLEIK . Reported EC50?
Resp: 0.3

Req: Request the reported EC50 associated with AHP06358 (antibody, V domains shown) VH: EVQLVQSGAEVKKPGASVKVSCKASGYTFTSYGISWVRQAPGQGLEWMGWISAYNGNTNYAQKLQGRVTMTTDTSTSTAYMELRSLRSDDTAVYYCARDSPLQIAVAGYYYGMDVWGQGTTVTVSS VL: NFMLTQPHSVSESPGKTVTISCTRSSGSIVSGYVQWYQQRPGSAPSTVIYEHNQRPSGVPDRFSGSIDSSSNSASLTISGLRTEDEADYYCQSYDSRNMIFGGGTKLTVL
Resp: 2.4
